Test Method Notes: Stability of NTI164 oil formulation at room temperature (UPLC)
Condition Label: NTI164 oil, room temperature, Week 6
Observation Type: Cannabinoid content of NTI164, Week 6 (mg/mL)
Answer in mg/mL, number only, no unit symbol.

Worked set:
CCCCCc1cc(O)c2c(c1)OC(C)(C)c1ccc(C)cc1-2 ... 2.27
CCCCCc1cc(O)c2c(c1)OC(C)(CCC=C(C)C)C=C2 (centres unmarked) ... 1.15
CCCCCc1cc2c(c(O)c1C(=O)O)[C@@H]1C=C(C)CC[C@H]1C(C)(C)O2 [(Tetrahydrocannabinolic acid) (D9-THCA), Delta-9-tetrahydrocannabinolic acid] ... 0.73
CCCCCc1cc(O)c(C/C=C(\C)CCC=C(C)C)c(O)c1 ... 5.28
C=C(C)[C@@H]1CCC(C)=C[C@H]1c1c(O)cc(CCCCC)cc1O ... 0.51

Prompt: Value lookup for Cannabinoid content of NTI164, Week 6; key = C=C(C)[C@@H]1CCC(C)=C[C@H]1c1c(O)cc(CCCCC)c(C(=O)O)c1O
Completion: 47.56

Prompt: Requested field: Cannabinoid content of NTI164, Week 6. Item: CCCCCc1cc(O)c(C/C=C(\C)CCC=C(C)C)c(O)c1C(=O)O
Completion: 1.00
